Assay: yeast display, Sf9 membrane polyspecificity reagent, FACS + sequencing; frameworks hold sequencing errors
Value type: polyreactivity (PSR sort gate)

Below: 6 sequences and their reported polyreactivity (PSR sort gate).
{"columns": ["Entry sequence", "polyreactivity (PSR sort gate)"],
 "data": [
  ["QVQLVESGGGLVQAGGSLRLSCAASGIIFKRYVMGWYRQAPGKDRQLVAGISWSGVSTFYADSVKGRFTISRDNAKNTVYLQMNSLKPEDTAVYYCAADRARYYYQAYGAYGYWGQGTQVTVSS", "high polyreactivity"],
  ["QVQLVESGGGLVQAGGSLRLSCAASGRNFTRNAMGWYRQAPGKEREFVAAISWSGGSTYYADSVKGRFTLSRDNAKNTVYVQMNSLKPEDTAVYYCAAKNCGGYVSWYDYWGQGTQVTVSS", "low polyreactivity"],
  ["QVQLVESGGGLVQAGGILRLSCAASGFTFGPNTMGWNRQAPGKERELVAAISRSGGSTYYADSVKGRFTISRDNAKNTVYLQMNSLNPEDTAVYYCAAYSPLSGGRMDYWGQGTQVNVSS", "high polyreactivity"],
  ["QVQLVESGGGLVQAGGSLRLSCAASGRTFPFYAMGWYRQAPGKEREFVAAITASGDSTYYADSVKGRFTISRDNAKNTVYLQMNSLKPEDTAVYYCAADLPVWYVTRYDYWGQGTQVTVSS", "low polyreactivity"],
  ["QVQLVESGGGLVQAGGSLRLSGAASGRYLFTWTAMGWYRQAPGIERELVAGITSGGNTYYADSVKGRFTISRDNPKNTVYLQMNSLKPEDTAVYYCAKGDGRRGDPYSRYDYCGQGTQVTVSS", "low polyreactivity"],
  ["QVQLVESGGGLVQAGGSLRLSWAASGRTLWYYTMGWYRQAPGKERELLAGITVSGGSTYYADSVKGRFTISRDNAKNTVYLQMNSLKPEDTAVYYCADGYYSTWKQASRYRYYYWGQGTQVTVSS", "high polyreactivity"]
]}

Task: Fill in: polyreactivity (PSR sort gate) of QVQLVESGGGLVQAGGSLRLSCAASGIIFLDNAMGWYRQAPGKERELVAAITTGGITYYADSVKGRFTISRDNAKNTVYLQMNSLKPEDTAVYYCAADNEWPRYDYWGQGTQVTVSS is ___
Output: low polyreactivity

Task: Fill in: polyreactivity (PSR sort gate) of QVQLVESGGGLVQAGGSLRLSCPASGRIFPKNAMGWYRQAPGKERELVAAIDYSDGSTNYADSVKGRFTFSRDTAKNTVYLQMNSLKPDDTAVYYCAIVAVPSYDYWGQGTKVTVSS is ___
Output: low polyreactivity

Task: Fill in: polyreactivity (PSR sort gate) of QVQLVESGGGLVQAGGSLRLSCAASGRIFRINAMGWYRQAPGKERELVASISRRGGNTYYADSVKGRFTISRDNAKNTVYLQMNSLKPEDTAVYYCAADTNLERTFDYWGQGTQVTVSS is ___
Output: low polyreactivity

Task: Fill in: polyreactivity (PSR sort gate) of QDQLVESVGDLVQAGGSLRLSCAASGGIFQKYVMGWYRQAPGKERELVARITSVGSTYYADSVKGRFTISRDNAKNTVYLQMNSLKPEDTAVYYCNAELYRRSQGYRFTAFDYWGQGTQVTVSS is ___
Output: low polyreactivity

Task: Fill in: polyreactivity (PSR sort gate) of QVQLVESGGGLVQAGGSLRLSCAASGSIFWSYAMGWYRQAPGKEREFVAAISGGDGTTYYADSVKGRFTISRDNAKNTVYLQMNSLKPEDTAVYYCNAVGYWYGSLEYDYWGQGTQVTVSS is ___
Output: low polyreactivity

Cited source: the nanobody polyreactivity screen of Harvey et al. (2022)
